The origin of these recorded values is patent US12473295B2.

- target_under_test: menin/MLL (terbium chelate-labeled menin, FITC-MBM1 peptide) (Homo sapiens (Human), UniProt O00255)
- Sequence (O00255 other isoform, or with tags, fused parts or gaps): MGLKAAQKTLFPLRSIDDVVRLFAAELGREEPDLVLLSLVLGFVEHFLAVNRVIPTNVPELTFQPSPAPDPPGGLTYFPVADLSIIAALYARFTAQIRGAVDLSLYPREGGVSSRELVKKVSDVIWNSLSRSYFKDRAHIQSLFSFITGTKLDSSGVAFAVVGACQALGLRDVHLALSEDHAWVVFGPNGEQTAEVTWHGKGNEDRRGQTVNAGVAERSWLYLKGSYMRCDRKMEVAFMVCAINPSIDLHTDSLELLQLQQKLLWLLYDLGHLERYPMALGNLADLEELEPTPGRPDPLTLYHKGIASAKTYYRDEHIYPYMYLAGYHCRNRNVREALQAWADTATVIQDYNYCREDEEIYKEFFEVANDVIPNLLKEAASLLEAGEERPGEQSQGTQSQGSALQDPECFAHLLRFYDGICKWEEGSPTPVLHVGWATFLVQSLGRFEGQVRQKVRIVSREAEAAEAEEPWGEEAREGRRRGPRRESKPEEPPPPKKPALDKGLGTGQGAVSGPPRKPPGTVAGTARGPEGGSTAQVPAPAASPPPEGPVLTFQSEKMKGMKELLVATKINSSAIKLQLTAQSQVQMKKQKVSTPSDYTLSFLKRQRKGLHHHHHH
- method: Menin/MLL homogenous time-resolved fluorescence (HTRF) assay
- Assay type: binding
- reported_conditions: HTRF-30 min incubation IC50, 30 min incubation
pIC50: −log10 of the molar value. Structures can show the parent of a compound that is named as a salt.
value_type: pIC50

CCN(C(=O)c1cc(F)ccc1Oc1nncnc1N1CCC2(C1)CN([C@H](CCN(C)CCOC)C(C)C)C2)C(C)C (single isomer, unassigned) ... 9.30
CCN(C(=O)c1cc(F)ccc1Oc1nncnc1N1CCC2(C1)CN([C@H](CCCN[C@H](C)COC)C(C)C)C2)C(C)C.O=C(O)/C=C/C(=O)O ... 10.31
COCCNCCC[C@@H](C(C)C)N1CC2(CCN(c3ncnnc3Oc3ccc(F)cc3C(=O)N(C(C)C)C(C)C)C2)C1 (single isomer, unassigned) ... 8.69
CCN(C(=O)c1cc(F)ccc1Oc1nncnc1N1CCC2(C1)CN([C@H](CCCNCC(F)F)C(C)C)C2)C(C)C ... 9.60
CCN(C(=O)c1cc(F)ccc1Oc1nnc(OC)nc1N1CCC2(C1)CN([C@H](CCCN)C(C)C)C2)C(C)C [Compound 407, formate] ... 10.07
CCN(C(=O)c1cc(F)ccc1Oc1nncnc1N1CCC2(C1)CN([C@H](C[C@@H](CN(C)C)OC)C(C)C)C2)C(C)C (single isomer, unassigned) ... 9.29

A = CCN(C(=O)c1cc(F)ccc1Oc1nncnc1N1CCC2(C1)CN([C@H](CCCNCC(COC)OC)C(C)C)C2)C(C)C (some centres unmarked) [Compound 172, fumarate]
B = CCN(C(=O)c1cc(F)ccc1Oc1nncnc1N1CCC2(C1)CN([C@H](CCCN(C)C(=O)OC)C(C)C)C2)C(C)C
C = CCN(C(=O)c1cc(F)ccc1Oc1nncnc1N1CCC2(C1)CN([C@H](CCNCCCOC)C(C)C)C2)C(C)C (single isomer, unassigned)
Q: Highest pIC50 first, then in falling order down to the smallest. Put the labels in the requested order and list them out.
Result: A, C, B

---

- Tested on: KO-52 cells
- method: Proliferation assay (spheroid growth, 8 days), KO-52 control cell line
- Assay type: cell-based, human
- reported_conditions: Homo sapiens, read-out: spheroid assay_OneTime KO-52 IC50
- Procedure: The anti-proliferative effect of menin/MLL protein/protein interaction inhibitor test compounds was assessed in human leukemia cell lines. […] In order to assess the anti-proliferative effects, 200 MOLM14 cells, 200 OCI-AML3 cells or 300 KO-52 cells were seeded in 200 μl media per well in […] round bottom, ultra-low attachment plates (Costar, catalogue number 7007). […] Spheroid like growth was measured in real-time by live-cell imaging (IncuCyteZOOM, Essenbio, 4× objective) acquiring images at day 8. […]
value_type: pIC50
Please note pIC50 is a logarithmic value: minus log10 of concentration in mol/L. Answer with that number alone.

Q: Name the reported pIC50 value associated with the compound `CCN(C(=O)c1cc(F)ccc1Oc1nncnc1N1CCC2(C1)CN([C@H](CCCNCCC#N)C(C)C)C2)C(C)C`
Result: 5.08

---

- System: iCell Cardiomyocytes2
- method: Ca2+-fluorescence assay in human pluripotent stem cell-derived cardiomyocytes (CTCM human), iCell Cardiomyocytes2
- Assay type: cell-based
- Set-up: key: Green: No concern; Yellow: Low concern; Red: High concern; Black: Very high concern due to arrhythmic events
- reported_conditions: iCell Cardiomyocytes2, 3 μM, 30 min
value_type: Color @ 3 μM (hazard score)

CCN(C(=O)c1cc(F)ccc1Oc1nncnc1N1CCC2(C1)CN([C@H](CCCN(C)CCO)C(C)C)C2)C(C)C ... Green
CCN(C(=O)c1cc(F)ccc1Oc1nncnc1N1CCC2(C1)CN([C@H](CCCNC)C(C)C)C2)C(C)C ... Green
CCN(C(=O)c1cc(F)ccc1Oc1nncnc1N1CCC2(C1)CN([C@H](CCCNCCOC)C(C)C)C2)C(C)C ... Green
CCN(C(=O)c1cc(F)ccc1Oc1nncnc1N1CCC2(C1)CN([C@H](CCCN(C)CCOC)C(C)C)C2)C(C)C [Compound 70a] ... Green

---

- Tested on: MEIS1 mRNA
- method: MEIS1 mRNA expression assay (Quantigene Singleplex) in MOLM14 cells;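 note: MEIS1 transcript levels read by probe hybridization and normalized to RPL28 mRNA, with IC50 fitted to fold changes across a rising compound concentration series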
- Format: cell-based, human
- reported_conditions: 48 hours incubation
value_type: IC50 (nM)

1 = CCN(C(=O)c1cc(F)ccc1Oc1nncnc1N1CCC2(C1)CN([C@H](CCCO)C(C)C)C2)C(C)C (single isomer, unassigned)
2 = CNC(=O)CC[C@@H](C(C)C)N1CC2(CCN(c3ncnnc3Oc3ccc(F)cc3-c3cncnc3C3CC3)C2)C1 (single isomer, unassigned)
Q: Which has the smaller recorded IC50, 1 or 2 ? Answer with the label corresponding to your selection.
Result: 1
(1: 140 nM, 2: 210 nM)

---

Listing of entries alongside the reported IC50.
- Tested on: MOLM14 cells
- method: Proliferation assay (spheroid growth, 8 days), MOLM14;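 note: spheroid size read as confluence by live-cell imaging, compounds added at a range of concentrations with 0.3% DMSO, DMSO-treated wells = 0%, highest reference dose = low control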
- Type: cell-based, human
- reported_conditions: MOLM14, 8 days; read-out: spheroid assay_OneTime MOLM14 IC50

CNC(=O)CC[C@H](C(C)C)N1CC2(CCN(c3ncnnc3Oc3ccc(F)cc3-c3cncnc3C3CC3)C2)C1 (single isomer, unassigned) ... > 3750 nM
CCN(C(=O)c1cc(F)ccc1Oc1nncnc1N1CCC2(C1)CN([C@@H](CCCO)C(C)C)C2)C(C)C (single isomer, unassigned) ... > 940 nM

Next molecule, IC50 to be filled in.
Q: Which IC50 reading was recorded for the molecule CCN(C(=O)c1cc(F)ccc1Oc1nncnc1N1CCC2(C1)CN([C@@H](CCO)C(C)C)C2)C(C)C (single isomer, unassigned) ?
Result: 1490 nM

---

- target_under_test: menin/MLL (terbium chelate-labeled menin, FITC-MBM1 peptide) (Homo sapiens (Human))
- method: Menin/MLL homogenous time-resolved fluorescence (HTRF) assay
- Format: binding
- reported_conditions: HTRF-30 min incubation IC50, 30 min incubation
Where a name gives a salt, the structure may show the parent alone.
value_type: IC50 (nM)

CCN(C(=O)c1cc(F)ccc1Oc1nncnc1N1CCC2(C1)CN([C@H](CCC(C)(C)N(C)C)C(C)C)C2)C(C)C (single isomer, unassigned) ... 0.1

A = CCN(C(=O)c1cc(F)ccc1Oc1nncnc1N1CCC2(C1)CN([C@H](CCCN(C)CC(C)(C)O)C(C)C)C2)C(C)C [Compound 140, fumarate]
B = CCN(C(=O)c1cc(F)ccc1Oc1nncnc1N1CCC2(C1)CN([C@H](CCCNC(C)=O)C(C)C)C2)C(C)C [Compound 6, formate]
Q: Parameter check: reported IC50 is higher for which label, A or B ? Your answer should be the label attached to the chosen record.
Result: B
(B: 0.61 nM, A: 0.093 nM)

---

- target_under_test: menin/MLL (terbium chelate-labeled menin, FITC-MBM1 peptide) (Homo sapiens (Human), UniProt O00255)
- method: Menin/MLL homogenous time-resolved fluorescence (HTRF) assay;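 note: IC50 from percent inhibition of HTRF signal, normalized between wells without competitor and wells with a saturating competitor that displaces FITC-MBM1 from His-tagged menin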
- Format: binding
- reported_conditions: HTRF-30 min incubation IC50, 30 min incubation
pIC50: −log10 of the molar value. Structures can show the parent of a compound that is named as a salt.
value_type: pIC50

For orientation, consider the following solved cases.
CCN(C(=O)c1cc(F)ccc1Oc1nnc(C)nc1N1CCC2(C1)CN([C@H](CCCN)C(C)C)C2)C(C)C [Compound 413, formate] ... 10.29
CCN(C(=O)c1cc(F)ccc1Oc1nncnc1N1CCC2(C1)CN([C@H](CCCNC(COC)COC)C(C)C)C2)C(C)C [Compound 159, fumarate] ... 10.00
CCN(C(=O)c1cc(F)ccc1Oc1nncnc1N1CCC2(C1)CN([C@H](CCCN(C)CC(=O)N(C)C)C(C)C)C2)C(C)C ... 9.66

A = CC(C)[C@@H](CCCN(C)[C@H](C)CC(N)=O)N1CC2(CCN(c3ncnnc3Oc3ccc(F)cc3C(=O)N(C(C)C)C(C)C)C2)C1 (single isomer, unassigned)
B = CCN(C(=O)c1cc(F)ccc1Oc1nncnc1N1CCC2(C1)CN(C(CC(C)(O)CN(C)CCOC)C(C)C)C2)C(C)C (stereo not drawn) [Compound 382, fumarate]
C = CCN(C)C[C@@H](C[C@@H](C(C)C)N1CC2(CCN(c3ncnnc3Oc3ccc(F)cc3C(=O)N(CC)C(C)C)C2)C1)OC (single isomer, unassigned)
Q: // ascending sort on recorded pIC50 To answer, write out the labels according to the requested order.
Result: C, B, A
(C: 7.39, B: 9.39, A: 9.89)

---

- System: KO-52 cells
- method: Proliferation assay (spheroid growth, 8 days), KO-52 control cell line
- Assay type: cell-based, human
- reported_conditions: Homo sapiens, […], read-out: spheroid assay_OneTime KO-52 IC50
- Method: The anti-proliferative effect of menin/MLL protein/protein interaction inhibitor test compounds was assessed in human leukemia cell lines. […] In order to assess the anti-proliferative effects, 200 MOLM14 cells, 200 OCI-AML3 cells or 300 KO-52 cells were seeded in 200 μl media per well in […] round bottom, ultra-low attachment plates (Costar, catalogue number 7007). […] Spheroid like growth was measured in real-time by live-cell imaging (IncuCyteZOOM, Essenbio, 4× objective) acquiring images at day 8. […]
pIC50: −log10 of the molar value. Structures can show the parent of a compound that is named as a salt.
value_type: pIC50

Here are 3 compounds together with their reported answers.
CCN(C(=O)c1cc(F)ccc1Oc1nncnc1N1CCC2(C1)CN([C@H](CCCN(C)C)C(C)C)C2)C(C)C ... < 4.82
CCN(C(=O)c1cc(F)ccc1Oc1nncnc1N1CCC2(C1)CN([C@H](CCCNCC(OC)OC)C(C)C)C2)C(C)C.O=C(O)/C=C/C(=O)O [Compound 104, fumarate] ... 4.97
CCN(C(=O)c1cc(F)ccc1Oc1nncnc1N1CCC2(C1)CN([C@H](CCC(C)N(C)CCOC)C(C)C)C2)C(C)C (stereo partly shown) [Compound 300, fumarate] ... < 4.82

Q: Lab note: need pIC50 for CCN(C(=O)c1cc(F)ccc1Oc1nncnc1N1CCC2(C1)CN([C@H](C[C@H](O)CN(C)CCOC)C(C)C)C2)C(C)C (single isomer, unassigned) on KO-52 cells, anyone have it?
Result: < 4.82

Q: Entry CCN(C(=O)c1cc(F)ccc1Oc1nncnc1N1CCC2(C1)CN([C@H](CCCN(C)CC(C)(C)O)C(C)C)C2)C(C)C [Compound 140, fumarate] , system KO-52 cells: what pIC50 was measured?
Result: 5.24

Q: Value wanted: pIC50 (KO-52 cells) of entry CCN(C(=O)c1cc(F)ccc1Oc1nncnc1N1CCC2(C1)CN([C@H](CCCN(C)C[C@H](O)COC)C(C)C)C2)C(C)C [Compound 285, formate]
Result: < 4.82

Q: What reported pIC50 corresponds to CCN(C(=O)c1cc(F)ccc1Oc1nncnc1N1CCC2(C1)CN([C@H](CCCN(C)C[C@@H](COC)OC)C(C)C)C2)C(C)C (single isomer, unassigned) on KO-52 cells?
Result: < 4.82

Q: API: value(readout= pIC50, system= KO-52 cells, query= CCN(C(=O)c1cc(F)ccc1Oc1nncnc1N1CCC2(C1)CN([C@H](CCCN(C)CCC(=O)N(C)C)C(C)C)C2)C(C)C [Compound 246, formate] )
Result: < 4.82

Q: Query pIC50 on KO-52 cells for CCN(C(=O)c1cc(F)ccc1Oc1nncnc1N1CCC2(C1)CN([C@@H](CCCNC)C(C)C)C2)C(C)C [Compound 20, hydrochloride]
Result: < 4.82

Q: # get_value(readout= pIC50, system= KO-52 cells) for CCN(C(=O)c1cc(F)ccc1Oc1nncnc1N1CCC2(C1)CN([C@H](CCCN(C)[C@H](C)CC(=O)N(C)C)C(C)C)C2)C(C)C (single isomer, unassigned)
Result: 5.52

Q: Reported pIC50 for KO-52 cells, given CCNCC[C@H](C(C)C)N1CC2(CCN(c3ncnnc3Oc3ccc(F)cc3C(=O)N(CC)C(C)C)C2)C1 (single isomer, unassigned) ?
Result: < 4.82

Q: Kindly state the measured pIC50 obtained for CCN(C(=O)c1cc(F)ccc1Oc1nncnc1N1CCC2(C1)CN([C@H](CCCN(C)C[C@@H](C)C(=O)NC)C(C)C)C2)C(C)C [Compound 195, fumarate] with KO-52 cells.
Result: < 4.82

Q: Find pIC50 (KO-52 cells) for the entry CCN(C(=O)c1cc(F)ccc1Oc1nncnc1N1CCC2(C1)CN([C@H](CCCN(C)[C@H](C)CC(=O)NC)C(C)C)C2)C(C)C [Compound 191, fumarate]
Result: < 4.82
